test system: c-Abl kinase (K562 cells); assay: In-vitro cell proliferation assay (MTT), K562 cells; assay type: cell-based; details: Homo sapiens, 100 nM
quantity kind: inhibition at 0.1 µM (%)
Give your result in % as a bare value.

Solved cases below.
>  <compound>
Cc1ccc(C(=O)NNC(=O)c2c(C)cccc2Cl)cc1C#Cc1ccc(NC(=O)CN2CCC(N(C)C)C2)nc1 (stereo not shown)

>  <inhibition at 0.1 µM / %>
82.1

$$$$
>  <compound>
Cc1ccc(C(=O)NNC(=O)c2ccc(CN3CCN(C)CC3)cc2)cc1C#Cc1ccc(NC(=O)C2CC2)nc1

>  <inhibition at 0.1 µM / %>
85.9

$$$$
>  <compound>
Cc1ccc(C(=O)NNC(=O)c2c(C)cccc2Cl)cc1C#Cc1ccc(NC(=O)CCN2CCN(C)CC2)nc1

>  <inhibition at 0.1 µM / %>
87.9

$$$$

Can you look up inhibition at 0.1 µM on c-Abl kinase (K562 cells) for CC(=O)Nc1ccc(C#Cc2cc(C(=O)NNC(=O)c3c(C)cccc3Cl)ccc2C)cn1 ? 91

Can you look up inhibition at 0.1 µM on c-Abl kinase (K562 cells) for Cc1ccc(C(=O)NNC(=O)c2c(C)cccc2Cl)cc1C#Cc1ccc(NC(=O)C2CC2)nc1 ? 87

Can you look up inhibition at 0.1 µM on c-Abl kinase (K562 cells) for Cc1ccc(C(=O)NNC(=O)c2c(C)cccc2Cl)cc1C#Cc1ccc(NC(=O)NC2CC2)nc1 ? 87.8

Can you look up inhibition at 0.1 µM on c-Abl kinase (K562 cells) for Cc1cn(-c2cc(C(=O)NNC(=O)c3ccc(C)c(C#Cc4ccc(NC(=O)C5CC5)nc4)c3)cc(C(F)(F)F)c2)cn1 ? 86.1

Can you look up inhibition at 0.1 µM on c-Abl kinase (K562 cells) for Cc1ccc(C(=O)NNC(=O)c2ccc(CN3CCN(C)CC3)c(C(F)(F)F)c2)cc1C#Cc1ccc(NC(=O)C2CC2)nc1 ? 57.2

Can you look up inhibition at 0.1 µM on c-Abl kinase (K562 cells) for Cc1ccc(C(=O)NNC(=O)c2c(C)cccc2Cl)cc1C#Cc1ccc(NC(=O)CN(C)C)nc1 ? 82.9

Can you look up inhibition at 0.1 µM on c-Abl kinase (K562 cells) for Cc1ccc(C(=O)NNC(=O)c2c(C)cccc2Cl)cc1C#Cc1ccc(NC(=O)CN2CCC(N(C)C)CC2)nc1 ? 86.9
